Origin of the recorded values: paper PMC3401280

ASSAY SYSTEM: HvirOR13 (HR13) (Heliothis virescens, UniProt Q6A1K1)
Construct: full ORF (AJ748328) in pGEMHE, expressed in Xenopus oocytes; with HvirOrco (HR2)
Sequence (Q6A1K1 1-425): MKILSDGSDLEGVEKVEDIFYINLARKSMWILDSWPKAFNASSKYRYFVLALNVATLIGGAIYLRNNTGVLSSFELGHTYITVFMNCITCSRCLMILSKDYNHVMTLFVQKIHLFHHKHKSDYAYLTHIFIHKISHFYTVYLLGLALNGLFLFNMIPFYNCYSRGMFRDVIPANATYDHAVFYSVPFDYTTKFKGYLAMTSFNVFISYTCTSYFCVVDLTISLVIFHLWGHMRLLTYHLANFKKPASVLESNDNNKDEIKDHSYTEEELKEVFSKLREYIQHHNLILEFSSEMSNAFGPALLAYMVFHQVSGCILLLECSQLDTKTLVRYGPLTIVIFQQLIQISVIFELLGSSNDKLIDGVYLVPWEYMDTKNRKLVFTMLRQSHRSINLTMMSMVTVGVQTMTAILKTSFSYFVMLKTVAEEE
Sequence (Q8MMI4 1-472 partner): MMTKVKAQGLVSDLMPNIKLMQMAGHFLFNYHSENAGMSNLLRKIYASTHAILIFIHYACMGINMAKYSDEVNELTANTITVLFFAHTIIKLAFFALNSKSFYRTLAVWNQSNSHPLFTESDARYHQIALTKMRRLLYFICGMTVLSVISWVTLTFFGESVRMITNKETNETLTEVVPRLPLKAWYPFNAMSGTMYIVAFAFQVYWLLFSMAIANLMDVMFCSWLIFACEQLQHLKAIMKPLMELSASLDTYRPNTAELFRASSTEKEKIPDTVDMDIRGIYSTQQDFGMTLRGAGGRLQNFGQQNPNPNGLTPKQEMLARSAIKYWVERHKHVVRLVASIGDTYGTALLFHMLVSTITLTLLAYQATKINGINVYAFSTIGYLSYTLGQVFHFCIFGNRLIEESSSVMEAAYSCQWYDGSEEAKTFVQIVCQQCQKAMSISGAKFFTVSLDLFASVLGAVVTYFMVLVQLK
MEASUREMENT NOTES: two-electrode voltage clamp in Xenopus oocytes
Format: cell-based
MEASUREMENT SETUP: read-out: EC50
ATTRIBUTE MEASURED: pEC50
Give bare numbers, as −log10 of the molar value.

Supply recorded pEC50 for CCCC/C=C\CCCCCCCCCC=O [Z11-16Ald, (11Z)-hexadecenal] here.
6.82
